- Method: Brain permeability in C57 male mice (plasma and brain tissue concentration)
- Format: in vivo
- Conditions Used: mouse, plasma, ip, intraperitoneal injection 1 mg/kg, read-out: Drug concentration at 0.5 h in plasma
Quantity: concentration at 0.5 h (ng/mL)
Field format: number, assumed ng/mL, no unit text.

Suppose we examine the molecule CN(C)C(=O)N[C@H]1CC[C@H](CCN2CCN3c4cccc5[nH]cc(c45)C[C@H]3C2)CC1 [(−)-I-10] ; what concentration at 0.5 h value has been reported? 124

====

- Method: Pharmacokinetic properties in C57 male mice, single dose (plasma, LC-MS/MS)
- Type: in vivo
- Conditions Used: mouse, plasma, oral administration 5 mg/kg, read-out: Area under the drug-time curve AUC0-inf
Quantity: AUC(0-inf) (ng·h/mL)
Field format: number, assumed ng·h/mL, no unit text.

Suppose we examine the compound CN(C)C(=O)N[C@H]1CC[C@H](CCN2CCN3c4cccc5[nH]cc(c45)C[C@H]3C2)CC1 [(−)-I-10] ; what AUC(0-inf) value has been reported? 596

====

- Target Or Test System: dopamine D2 receptors (Homo sapiens (Human), UniProt P14416)
- Sequence (P14416 whole entry): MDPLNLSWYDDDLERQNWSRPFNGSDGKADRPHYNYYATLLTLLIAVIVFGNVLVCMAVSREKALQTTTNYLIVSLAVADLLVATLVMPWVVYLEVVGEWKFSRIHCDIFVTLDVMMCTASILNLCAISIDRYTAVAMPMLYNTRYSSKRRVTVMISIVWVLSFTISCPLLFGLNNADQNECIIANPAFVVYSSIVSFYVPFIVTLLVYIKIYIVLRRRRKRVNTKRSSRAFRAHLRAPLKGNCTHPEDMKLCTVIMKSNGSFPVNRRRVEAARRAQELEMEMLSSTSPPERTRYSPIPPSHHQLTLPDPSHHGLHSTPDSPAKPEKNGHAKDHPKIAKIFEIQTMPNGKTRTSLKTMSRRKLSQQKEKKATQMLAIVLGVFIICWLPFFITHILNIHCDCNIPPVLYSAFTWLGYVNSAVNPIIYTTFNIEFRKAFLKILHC
- Method: G protein Gαi1-γ9 dissociation BRET, dopamine D2 receptor functional activity
- Type: cell-based
- Conditions Used: HEK-293T; I-1 to 19 n=3, I-20 to 27 single determination; read-out: Gai1 BRET EC50
Consider the following compounds; for each one, report its EC50.
Field format: number, assumed µM, no unit text.

Suppose we examine the compound CN(C)C(=O)N[C@H]1CC[C@H](CCN2CCN3c4cccc5[nH]cc(c45)C[C@H]3C2)CC1 [(−)-I-10] ; what EC50 value has been reported? 0.00138

Suppose we examine the compound Cn1cc2c3c(cccc31)N1CCN(C/C=C/COc3ccc4ccc(=O)[nH]c4c3)CC1C2 (stereo not shown) [Compound I-23] ; what EC50 value has been reported? 0.0548

Suppose we examine the compound CN(C)C(=O)N[C@H]1CC[C@H](CN2CCN3c4cccc5[nH]cc(c45)CC3C2)CC1 (stereo partly shown) [Compound I-16] ; what EC50 value has been reported? 0.0589

Suppose we examine the compound CN(C)C(=O)N[C@H]1CC[C@H](CCN2CCN3c4cccc5c4c(cn5C)CC3C2)CC1 (stereo partly shown) [Compound I-19] ; what EC50 value has been reported? 0.004

====

- Target Or Test System: dopamine D2 receptors (Homo sapiens (Human), UniProt P14416)
- Method: β-arrestin2 recruitment BRET, dopamine D2 receptor functional activity
- Format: cell-based
- Conditions Used: n=3; read-out: β-arrestin2 BRET pEC50 ± SEM (converted)
Quantity: EC50
Reply with the number and its unit after it.

Suppose we examine the molecule O=c1ccc2ccc(OCCCCN3CCN4c5cccc6[nH]cc(c56)CC4C3)cc2[nH]1 (single isomer, unassigned; (+)) [(+)-I-2] ; what EC50 value has been reported? 15.8 nM

Suppose we examine the molecule O=c1ccc2ccc(OCCCCN3CCN4c5cccc6[nH]cc(c56)CC4C3)cc2[nH]1 (single isomer, unassigned; (-)) [(−)-I-2] ; what EC50 value has been reported? 18.2 nM

Suppose we examine the molecule CN(C)C(=O)N[C@H]1CC[C@H](CCN2CCN3c4cccc5c4c(cn5C)CC3C2)CC1 (stereo partly shown) [Compound I-19] ; what EC50 value has been reported? 28.8 nM

Suppose we examine the molecule Cc1nc2n(c(=O)c1CCN1CCN3c4cccc5[nH]cc(c45)CC3C1)CCCC2 (stereo not shown) [Compound I-17] ; what EC50 value has been reported? 200 nM

====

- Method: Pharmacokinetic properties in C57 male mice, single dose (plasma, LC-MS/MS)
- Format: in vivo
- Conditions Used: mouse, plasma, intravenous injection 1 mg/kg, read-out: Terminal elimination half-life t1/2 (converted)
Quantity: half-life (min)
Field format: number, assumed min, no unit text.

Suppose we examine the compound CN(C)C(=O)N[C@H]1CC[C@H](CCN2CCN3c4cccc5[nH]cc(c45)C[C@H]3C2)CC1 [(−)-I-10] ; what half-life value has been reported? 51.7

====

- Method: Pharmacokinetic properties in C57 male mice, single dose (plasma, LC-MS/MS)
- Assay type: in vivo
- Conditions Used: mouse, plasma, ip, intraperitoneal injection 1 mg/kg, read-out: Drug peak concentration Cmax
Quantity: Cmax (ng/mL)
Field format: number, assumed ng/mL, no unit text.

Suppose we examine the compound CN(C)C(=O)N[C@H]1CC[C@H](CCN2CCN3c4cccc5[nH]cc(c45)C[C@H]3C2)CC1 [(−)-I-10] ; what Cmax value has been reported? 271

====

- Method: Pharmacokinetic properties in C57 male mice, single dose (plasma, LC-MS/MS)
- Assay type: in vivo
- Conditions Used: mouse, plasma, intravenous injection 1 mg/kg, read-out: Apparent volume of distribution Vdss
Quantity: Vd
Reply with the number and its unit after it.

Suppose we examine the compound CN(C)C(=O)N[C@H]1CC[C@H](CCN2CCN3c4cccc5[nH]cc(c45)C[C@H]3C2)CC1 [(−)-I-10] ; what Vd value has been reported? 4.86 L/kg

====

- Method: Brain permeability in C57 male mice (plasma and brain tissue concentration)
- Assay type: in vivo
- Conditions Used: mouse, brain/plasma, oral administration 5 mg/kg, read-out: Brain/blood concentration ratio at 0.5 h
Quantity: Kp at 0.5 h
I only need the number, thanks.

Suppose we examine the compound CN(C)C(=O)N[C@H]1CC[C@H](CCN2CCN3c4cccc5[nH]cc(c45)C[C@H]3C2)CC1 [(−)-I-10] ; what Kp at 0.5 h value has been reported? 1.5

====

Consider the following compounds; for each one, report its pEC50.
- Target Or Test System: dopamine D2 receptors (Homo sapiens (Human), UniProt P14416)
- Method: β-arrestin2 recruitment BRET, dopamine D2 receptor functional activity
- Assay type: cell-based
- Conditions Used: HEK-293T; I-1 to 19 n=3, I-20 to 27 single determination; read-out: β-arrestin2 BRET EC50
Quick note: pEC50 means taking -log10 of the concentration in moles per liter.

Recorded pEC50 for CN(C)C(=O)N[C@H]1CC[C@H](CN2CCN3c4cccc5[nH]cc(c45)CC3C2)CC1 (some centres unmarked) with dopamine D2 receptors (Homo sapiens (Human), UniProt P14416), please? 7.39

Recorded pEC50 for O=C(N[C@H]1CC[C@H](CCN2CCN3c4cccc5[nH]cc(c45)CC3C2)CC1)N1CCCC1 (some centres unmarked) with dopamine D2 receptors (Homo sapiens (Human), UniProt P14416), please? 7.95

Recorded pEC50 for Cn1cc2c3c(cccc31)N1CCN(C/C=C/COc3ccc4c(c3)NC(=O)CC4)CC1C2 (centres unmarked) with dopamine D2 receptors (Homo sapiens (Human), UniProt P14416), please? 7.04

Recorded pEC50 for CN(C)C(=O)N[C@H]1CC[C@H](CCN2CCN3c4cccc5[nH]cc(c45)C[C@@H]3C2)CC1 [(+)-I-10] with dopamine D2 receptors (Homo sapiens (Human), UniProt P14416), please? 8.28

Recorded pEC50 for O=C(N[C@H]1CC[C@H](CCN2CCN3c4cccc5[nH]cc(c45)CC3C2)CC1)c1ccccc1 (some centres unmarked) with dopamine D2 receptors (Homo sapiens (Human), UniProt P14416), please? 7.56

====

- Target Or Test System: dopamine D2 receptors (Homo sapiens (Human), UniProt P14416)
- Method: G protein Gαi1-γ9 dissociation BRET, dopamine D2 receptor functional activity
- Format: cell-based
- Conditions Used: relative to the endogenous ligand dopamine; read-out: Gai1 BRET Emax % ± SEM
Quantity: Emax (%)
Field format: number, assumed %, no unit text.

Recorded Emax for OC(CCCN1CCN2c3cccc4[nH]cc(c34)CC2C1)c1ccc(F)cc1 (stereo not shown) [Compound I-25] with dopamine D2 receptors (Homo sapiens (Human), UniProt P14416), please? 29

Recorded Emax for O=c1ccc2ccc(OCCCCN3CCN4c5cccc6[nH]cc(c56)CC4C3)cc2[nH]1 (single isomer, unassigned; (+)) [(+)-I-2] with dopamine D2 receptors (Homo sapiens (Human), UniProt P14416), please? 95

Recorded Emax for O=C(N[C@H]1CC[C@H](CCN2CCN3c4cccc5[nH]cc(c45)CC3C2)CC1)N1CCCCC1 (stereo partly shown) [Compound I-12] with dopamine D2 receptors (Homo sapiens (Human), UniProt P14416), please? 92

Recorded Emax for CN(C)C(=O)N[C@H]1CC[C@H](CCN2CCN3c4cccc5[nH]cc(c45)C[C@@H]3C2)CC1 [(+)-I-10] with dopamine D2 receptors (Homo sapiens (Human), UniProt P14416), please? 86

Recorded Emax for c1cc2c3c(c[nH]c3c1)CC1CN(CCCCOc3ccc4scnc4c3)CCN21 (stereo not shown) [Compound I-3] with dopamine D2 receptors (Homo sapiens (Human), UniProt P14416), please? 92

Recorded Emax for c1cc2c3c(c[nH]c3c1)CC1CN(CCCOc3ccc4c(c3)OCO4)CCN21 (stereo not shown) [Compound I-9] with dopamine D2 receptors (Homo sapiens (Human), UniProt P14416), please? 92

Recorded Emax for Cn1cc2c3c(cccc31)N1CCN(C/C=C/COc3ccc4c(c3)NC(=O)CC4)CC1C2 (stereo not shown) [Compound I-22] with dopamine D2 receptors (Homo sapiens (Human), UniProt P14416), please? 41

Recorded Emax for O=S(=O)(N[C@H]1CC[C@H](CCN2CCN3c4cccc5[nH]cc(c45)CC3C2)CC1)c1ccccc1 (stereo partly shown) [Compound I-15] with dopamine D2 receptors (Homo sapiens (Human), UniProt P14416), please? 94

Recorded Emax for O=C1CCc2ccc(OCCCN3CCN4c5cccc6[nH]cc(c56)CC4C3)cc2N1 (stereo not shown) [Compound I-7] with dopamine D2 receptors (Homo sapiens (Human), UniProt P14416), please? 104

Recorded Emax for O=C(N[C@H]1CC[C@H](CCN2CCN3c4cccc5[nH]cc(c45)CC3C2)CC1)N1CCCC1 (stereo partly shown) [Compound I-11] with dopamine D2 receptors (Homo sapiens (Human), UniProt P14416), please? 91
